B1: RHOBTB3 (parent)
chain: VSHVFMLLFNVKSPTDIQDSSIIR

Variants of: B1
Assay: protein stability index of a GFP-peptide fusion (GPS, HEK-293T) (PSI 1-6); higher = more stable;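 also: lentivirally expressed fusions sorted by FACS into six bins by GFP to DsRed ratio, PSI derived from sequencing read proportions per bin multiplied by bin number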
Conditions: c terminus: a fixed tail appended
// class assignment uses protein stability index with these ranges: class 0 (below 2), class 1 (2 to below 3), class 2 (3 or more)

Examples from the recorded data:
VSHVFMLLHNVKSPTDIQDSSIIR :: class 0
VSHTFMLLFNVKSPTDIQDSSIIR :: class 1

QUERY: Lab log: VSHVFMLLFNVKSPSDIQDSSIIR — assign protein stability index category
RESULT: class 2

QUERY: Lab log: VSHVFMLLFNVKKPTDIQDSSIIR — assign protein stability index category
RESULT: class 1

QUERY: Lab log: VSHSFMLLFNVKSPTDIQDSSIIR — assign protein stability index category
RESULT: class 0

QUERY: Lab log: VSHVFMLLFNVGSPTDIQDSSIIR — assign protein stability index category
RESULT: class 2

QUERY: Lab log: VSHVFMLLFNVKSPTDIWDSSIIR — assign protein stability index category
RESULT: class 2

QUERY: Lab log: VSHVFMDLFNVKSPTDIQDSSIIR — assign protein stability index category
RESULT: class 0

QUERY: Lab log: VSHVFMLLFNVKSPTDIHDSSIIR — assign protein stability index category
RESULT: class 1

QUERY: Lab log: VSEVFMLLFNVKSPTDIQDSSIIR — assign protein stability index category
RESULT: class 0

QUERY: Lab log: VSHVYMLLFNVKSPTDIQDSSIIR — assign protein stability index category
RESULT: class 2
